// reported OD450 nm for each item listed
- Assayed target: monkey GPC3-His protein (monkey)
- Procedure text: ELISA, monkey GPC3-His coated; antibody 0.004 nM
Response field accepts a number only; no unit should be typed.

hAb006LH1L1a (antibody, human IgG1, V domains shown) VH: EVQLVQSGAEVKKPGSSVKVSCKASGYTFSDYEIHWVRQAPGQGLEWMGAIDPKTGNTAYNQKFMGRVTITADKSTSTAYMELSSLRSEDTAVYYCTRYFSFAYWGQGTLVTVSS VL: DIVMTQTPLSLPVTPGEPASISCRSSQTFVHSDGNTYLQWYLQKPGQSPQLLIYKVSNRFSGVPDRFSGSGSGTDFTLKISRVEAEDVGVYYCFQGSHVPYTFGQGTKLEIK: 0.058

Consider now this further binder.
Summary for this binder, hAb003LH2L1 (antibody, human IgG1, V domains shown) VH: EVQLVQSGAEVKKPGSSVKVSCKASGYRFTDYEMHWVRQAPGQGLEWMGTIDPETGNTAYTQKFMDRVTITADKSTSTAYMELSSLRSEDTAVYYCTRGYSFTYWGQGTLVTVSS VL: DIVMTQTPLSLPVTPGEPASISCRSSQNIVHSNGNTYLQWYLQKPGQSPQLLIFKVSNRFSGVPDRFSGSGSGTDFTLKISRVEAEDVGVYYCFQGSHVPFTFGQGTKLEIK : OD450 nm is 0.413
